Sourced from paper PMC12040169

test: in vitro; details: human, hela cells, % viability
I'd appreciate it if you marked entries label 1 when viability at 28.5 h, 10 µM is lower than 90% and label 0 when it is not.

compound: Cc1ccn(CCNC(=O)c2ccc3c(C)c(C)[nH]c3c2)n1 [CBK282519]
labelValue: label 0
--
compound: N#CCCN(C(=O)Nc1ccc2[nH]ccc2c1)C1CCCCC1 [CBK156362]
labelValue: label 0

Turning now to a further record.
Q) Problem: For the compound COc1cc(C)c(Nc2cc(-c3cccc(N(C)C)c3)ncn2)cc1OC [CBK090780] , is viability at 28.5 h, 10 µM under 90%?
A) label 1

* * *

Listed compounds paired with reported % viability
test system: HeLa; settings: bulk resorufin, single well, 28.5 h, 10 µM, Bulk resorufin fluorescence
Give just the number in %; leave the unit off.

compound: CC1=C/C(=C(\C#N)C(N)=O)NC(c2ccccc2O)=N1 [CBK019764]
quantityName: % viability
quantitativeReadout: 95.3
//
compound: Cc1cc2ncn(C3CC(=O)N(c4ccc(C(=O)O)cc4)C3=O)c2cc1C (centres unmarked) [CBK286586]
quantityName: % viability
quantitativeReadout: 92.4
//
compound: O=C(NC1CC1)[C@H]1C=CCN1S(=O)(=O)c1cccc(F)c1 [CBK285485]
quantityName: % viability
quantitativeReadout: 98.9

# % viability of O=C(Cn1c([C@H]2CCCO2)cc2cccnc21)NC1CC1 [CBK282274] = 102

# % viability of C[C@@H](Cn1nnc2ccccc21)NC(=O)c1ccco1 [CBK284319] = 86.3

* * *

Listed compounds paired with reported viability at 28.5 h, 10 µM
assay: in vitro; conditions: human, hela cells, % viability
Give just the number in %; leave the unit off.

Guide cases for viability at 28.5 h, 10 µM, answers given:
compound: O=C(O)c1cc(-c2cccnc2)nc2ccccc12 [CBK262141K]
viability at 28.5 h, 10 µM (%): 103
--
compound: O=C(O)CCC(=O)N1CCN(c2ncccn2)CC1
viability at 28.5 h, 10 µM (%): 114
--
compound: O=C1CNC(=S)N1c1cccc(C(F)(F)F)c1
viability at 28.5 h, 10 µM (%): 104

# viability at 28.5 h, 10 µM of `O=C(CCn1c(C(F)(F)F)cc2cccnc21)N1CCOCC1` = 96.4

# viability at 28.5 h, 10 µM of `CC(C)(CSc1ccccn1)NS(=O)(=O)c1ccccc1` = 102

# viability at 28.5 h, 10 µM of `Cc1ccc(Nc2cncc(-c3ccc(O)cc3)n2)cc1Cl` = 99.9

# viability at 28.5 h, 10 µM of `CC(C)(C)OC(=O)N1CCN(S(=O)(=O)c2ccc(Br)cc2)CC1` = 91.8

# viability at 28.5 h, 10 µM of `COc1ccc(-c2csc(CCNC(=O)Cc3c[nH]c(=O)[nH]c3=O)n2)cc1` = 92.4

# viability at 28.5 h, 10 µM of `Cn1ncc2c1CCCN(C(=O)Cc1ccc(Cl)cc1)C2` = 106

# viability at 28.5 h, 10 µM of `O=C(CSc1nnc(-c2ccco2)c(-c2ccco2)n1)Nc1ccccc1[N+](=O)[O-]` = 107

* * *

Listed compounds paired with reported viability at 28.5 h, 10 µM
experiment: in vitro; conditions: human, hela cells, % viability
Give just the number in %; leave the unit off.

Guide cases for viability at 28.5 h, 10 µM, answers given:
compound: O=C(CCN1CCCC1Cn1cncn1)NCCc1ccccc1 (centres unmarked)
quantitativeReadout: 92.9
//
compound: CN1CCC(C(=O)N2CCN(c3ccccc3)CC2)CC1
quantitativeReadout: 93.5
//
compound: CN(C)CCCC(=O)Nc1ccc2[nH]ccc2c1
quantitativeReadout: 114
//
compound: CN1CCN(CCCNC(=O)N2CCN(c3ccccc3)CC2)CC1
quantitativeReadout: 101
//
compound: O=C(Cc1c[nH]c2ccccc12)N1CCC(F)CC1
quantitativeReadout: 118
//
compound: N#C/C(=C/c1ccc(OCc2cccc(C(=O)O)c2)cc1)c1ccc([N+](=O)[O-])cc1
quantitativeReadout: 89.6

# viability at 28.5 h, 10 µM of `CC(C)Oc1cccc(C(=O)Nc2ccc(N3CCN(C)CC3)cc2)c1` = 90.5

# viability at 28.5 h, 10 µM of CCOc1cc(CCC(=O)NC(C)c2ccccc2)on1 (centres unmarked) = 82.3

# viability at 28.5 h, 10 µM of Cc1ccc(S(=O)(=O)N(CC(O)Cn2c3ccc(Cl)cc3c3cc(Cl)ccc32)c2ccccc2)cc1 (centres unmarked) = 92.2

# viability at 28.5 h, 10 µM of `CC(C)(C)CN1CCC(Oc2nccnc2OCc2ccc(Br)cc2F)CC1` = 116

# viability at 28.5 h, 10 µM of `Cn1cc(CC(=O)Nc2nc3c(cc2C#N)CCCC3)cn1` = 90.7

* * *

assay: in vitro; details: human, hela cells, % viability
quantityName: viability at 28.5 h, 10 µM (%)
Give just the number in %; leave the unit off.

Guide cases for viability at 28.5 h, 10 µM, answers given:
molecule: Cc1cc(C)cc(N(CC(=O)O)S(C)(=O)=O)c1
unitInfo: %
viability at 28.5 h, 10 µM: 111
//
molecule: CC(=O)c1cc2c(N)c(/C(N)=N/C#N)sc2nc1C
unitInfo: %
viability at 28.5 h, 10 µM: 70.7
//
molecule: CCN1CCC[C@@H]1CNC(=O)c1n[nH]c2c1CCC2
unitInfo: %
viability at 28.5 h, 10 µM: 106
//
molecule: O=C(O)CCC(C(=O)O)N1C(=O)c2cc(Cl)c(Cl)cc2C1=O (centres unmarked)
unitInfo: %
viability at 28.5 h, 10 µM: 113

# viability at 28.5 h, 10 µM of `COCCCOc1cncc(NC(C)C)n1` = 89

* * *

Listed compounds paired with reported viability at 28.5 h, 10 µM
assay: in vitro; conditions: human, hela cells, % viability
Give just the number in %; leave the unit off.

Guide cases for viability at 28.5 h, 10 µM, answers given:
compound: O=C(COc1ccc2c(c1)OCO2)N1CCN(Cc2ccccc2)CC1
unitInfo: %
quantitativeReadout: 84.8
--
compound: CCNC(=O)N[C@H]1CO[C@H]2[C@@H]1OC[C@@H]2n1nnnc1Oc1ccccc1
unitInfo: %
quantitativeReadout: 102
--
compound: Cc1cc(Nc2ccc(I)cc2)n2ncnc2n1
unitInfo: %
quantitativeReadout: 100
--
compound: COc1ccc(CC(=O)O)cc1S(=O)(=O)Nc1ccc(SC)cc1
unitInfo: %
quantitativeReadout: 81
--
compound: CC(Sc1nc(C2CC2)n(-c2ccccc2)n1)C(=O)N1CCNC1=O (stereo not shown)
unitInfo: %
quantitativeReadout: 97.2

# viability at 28.5 h, 10 µM of COc1ccccc1C(NC(=O)C1CCN(C(=O)c2cccc(Cl)c2)CC1)c1ccccn1 (stereo not shown) = 90.3

# viability at 28.5 h, 10 µM of COc1ccc(C2NCCc3c2[nH]c2ccccc32)cc1CN1CCN(c2ccc(F)cc2)CC1 (stereo not shown) [CBK264178C] = 81.7

# viability at 28.5 h, 10 µM of `C/C(=N\O)c1cc2cc(Cl)cc(Cl)c2oc1=O` = 84.5

# viability at 28.5 h, 10 µM of `CCOC(=O)c1sc2nc(N3CCOCC3)c3c(c2c1N)CCCC3` = 100

# viability at 28.5 h, 10 µM of `COc1ccc(CCNC(=O)c2cnc3sc(C)cn3c2=O)cc1OC` = 104

# viability at 28.5 h, 10 µM of `CN1CCC(N[C@H]2CC(C)(C)[C@@H]3C[C@@](C)(O)CC[C@]23CCC(=O)N2CCOCC2)CC1` = 97.2

* * *

assay: in vitro; settings: human, hela cells, % viability
quantityName: viability at 28.5 h, 10 µM (%)
Give just the number in %; leave the unit off.

# viability at 28.5 h, 10 µM of `O=C(CSc1ncnc2c1oc1ccccc12)Nc1ccccc1` = 93.4

# viability at 28.5 h, 10 µM of `Nc1ncc(-c2ccc(C(=O)N3CCOCC3)cc2)cc1C(=O)NCc1ccc(S(N)(=O)=O)cc1` = 105

* * *

test system: HeLa; settings: bulk resorufin, single well, 28.5 h, 10 µM, Bulk resorufin fluorescence
quantityName: % viability

Guide cases for % viability, answers given:
molecule: O=C(O)CCS(=O)(=O)c1cccc2cccnc12 [CBK131911]
measuredOn: HeLa
% viability: 92.5%
--
molecule: Cc1nc2ccccc2n1C(=O)c1sc2ccccc2c1Cl [CBK020557]
measuredOn: HeLa
% viability: 115%
--
molecule: CCN(Cc1ccccc1)C(=O)NCC1COc2ccccc2O1 (stereo not drawn) [CBK155213]
measuredOn: HeLa
% viability: 89.3%
--
molecule: CC[C@@H](Cn1ncc2ccccc2c1=O)NC(=O)C1CCC1 [CBK282384]
measuredOn: HeLa
% viability: 82%
--
molecule: O=C1CSC(Nc2ccc(Br)cc2)=N1 [CBK026413]
measuredOn: HeLa
% viability: 88.5%
--
molecule: Cc1ccc(C(=O)NCC(=O)NCC(=O)O)cc1 [CBK262170]
measuredOn: HeLa
% viability: 91.7%

# % viability of Cc1cc(CNC(=S)NC2CCCCC2)nn1C [CBK288519] = 94%

# % viability of CC(=O)NC[C@H]1CN(c2ccc(-c3cc4ccccc4n3C(=O)OC(C)(C)C)c(F)c2)C(=O)O1 [CBK011849] = 82.6%

# % viability of O=C(C1CC1)N1C2CCC(C2)[C@H]1COc1ccc(F)cc1 (stereo partly drawn) [CBK284597] = 100%

# % viability of C[C@H](Cn1c(C(F)(F)F)cc2cccnc21)NC(=O)C1CC1 [CBK283227] = 89.4%

# % viability of O=C(NCCc1ccccc1)[C@@H]1C=CCN1C(=O)c1ccco1 [CBK284316] = 90%

# % viability of O=C(c1cccnc1)N1C2CCC(C2)[C@H]1COc1ccc(F)cc1 (stereo partly drawn) [CBK285268] = 87.8%

# % viability of CS(=O)(=O)N1C2CCC(C2)[C@H]1COc1cccc(C(F)(F)F)c1 (stereo partly drawn) [CBK284596] = 107%

# % viability of O=C(O)c1cccc2c1C(=O)N(Cc1ccccc1)C2 [CBK286872] = 89.1%

# % viability of Brc1ccc(CSc2nc[nH]n2)cc1 [CBK027819] = 98.5%

# % viability of C[C@@H]1CN2CCCC2CN1Cc1ccc(F)c(F)c1 (stereo partly drawn) [CBK285445] = 105%

# % viability of C[C@@H](Cn1c(=O)oc2ccccc21)NC(=O)Cc1cccs1 [CBK284533] = 79.8%

# % viability of COc1ccc(C(NC(=O)Cc2cn3ccsc3n2)C2CC(O)C2)cn1 (stereo not drawn) [CBK306910] = 97%

# % viability of COCCn1c(C)cc(CN2CC3CCCN3C[C@@H]2C)c1C (stereo partly drawn) [CBK285421] = 101%

# % viability of CC[C@H](Cn1ncc2ccccc2c1=O)NC(=O)C1CCCC1 [CBK284302] = 102%

# % viability of Cc1sc(NC(=O)C(F)(F)F)c(C(N)=O)c1C [CBK027775] = 94.1%
